These entries and their values trace back to ChEMBL document CHEMBL1201862.

- Test system: UO-31
- assay: NCI tumour cell line growth inhibition, 48 h
Active and inactive are the calls of the source. Rule as the data show it: active = GI50 up to about 1.1 µM and inactive = higher.
Form entry, call: pick from T = active, F = inactive

Inquiry: Dear all, I need the recorded test outcome for "CCOC(=O)c1cn2c(n1)sc1cc([N+](=O)[O-])ccc12" , thank you.
Reply text: F

Inquiry: Recorded test call requested for "COc1cc(C)cc(OC)c1/C=C/C(=O)O"
Reply text: F

Inquiry: Each compound tested received a call. Report the one for CC1(c2nc3ccccc3[nH]2)CCC(C#N)C(C)(C)O1 (stereo not drawn) .
Reply text: F

Inquiry: Any idea what this test logged for "COC(=O)[C@]12CC[C@H]3CC[C@H]([C@H]31)[C@H](c1ccccc1)N2" ?
Reply text: F

Inquiry: Identify the outcome logged in this assay for the compound shown: "COC(=O)Cc1c([C@H]2[C@H](CC(=O)OC)c3ccccc3N2C(=O)C(F)(F)F)[nH]c2ccccc12"
Reply text: F

Inquiry: I'd appreciate the recorded outcome for COC(=O)C(C)Oc1ccc(O)cc1 (stereo not drawn) from this test.
Reply text: F

Inquiry: Short answer needed: outcome of this test for "O=C(O)CNS(=O)(=O)c1ccc(NC(=O)c2ccc(F)cc2)cc1" ?
Reply text: F

Inquiry: # fetch the recorded call for "CC(C)(CN1CCCCC1)C(=O)/C=C/c1c(Cl)cccc1Cl" here
Reply text: T

Inquiry: What outcome does the record of this test show for "CN(Cc1cnc2nc(N)nc(N)c2n1)c1ccc(C(=O)N[C@@H](CCS(=O)(=O)O)C(=O)O)cc1" ?
Reply text: T

Inquiry: Record lookup: outcome of this test for "O=c1ccn(CC2(CO)CCC2)c(=O)[nH]1" ?
Reply text: F

Inquiry: Which outcome did this test record for the compound CCCCCCCCCCCCCCCCOP(=O)(O)OP(=O)(O)OCC1OC(n2ccc(N)nc2=O)CC1O (stereo not drawn) ?
Reply text: F

Inquiry: Dear all, I need the recorded test outcome for "CN(C)CCNc1ccc2nnn3c4ccccc4c(=O)c1c23" , thank you.
Reply text: F

Inquiry: Would you mind telling me which call this test gave "O=C(NNS(=O)(=O)c1ccccc1)c1cccnc1" ?
Reply text: F

###

- Tested on: BT-549
- assay: NCI tumour cell line growth inhibition, 48 h
Calls of active or inactive are those of the source. Cut-off read from the data, not from the text of the source: active = GI50 up to about 1.1 µM and inactive = higher.
property-measured: GI50

Inquiry: Return GI50 (reported value) for this compound: "COc1ccc(/N=N/C(=N/NC(=O)c2cc(Cl)ccc2C(=O)c2ccccc2)c2ccc(N(CCC#N)CCC#N)cc2C)cc1"
Reply text: 29.4 µM (inactive)

Inquiry: Provide GI50 value for the following compound: "CCOC(=O)N/N=C(/N)c1cccc(Br)c1"
Reply text: > 100 µM (inactive)

Inquiry: Could you please provide reported GI50 for "S=C(/N=c1\sc(Nc2ccc(Cl)cc2)nc2sc3c(c12)CCN(N1CCc2c(sc4nc(Nc5ccc(Cl)cc5)s/c(=N\C(=S)Nc5ccc(Cl)cc5)c24)C1)C3)Nc1ccc(Cl)cc1" ? Thanks!
Reply text: > 100 µM (inactive)

Inquiry: Specify measured GI50 for "C/C(NC(=O)c1ccccc1)=C(/C(=O)c1ccccc1)[C@@H]1OC(C)(C)O[C@@H]1[C@H]1COC(C)(C)O1" .
Reply text: 25.8 µM (inactive)

Inquiry: Read the entry COC(=O)C1(Cc2ccc3c(c2)CCC3)Cc2cc3c(cc2C1=O)CCC3 (configuration not stated) and write its reported GI50.
Reply text: 7.96 µM (inactive)

Inquiry: Provide measured GI50 value, entry: CCN1CCC(O)(/C=C/c2ccc(C)cc2C)C(C(=O)/C=C/c2ccc(C)cc2C)C1 (configuration not stated)
Reply text: 2.79 µM (inactive)

Inquiry: Respond only with GI50 recorded for "COC(=O)c1ccccc1/C=C1\Cc2ccc3c(c2C1=O)CCCC3"
Reply text: > 100 µM (inactive)

Inquiry: Retrieve GI50 measured for "O=[N+]([O-])c1cccc2c(/N=N/c3ccc4ccccc4c3O)c(O)cc(S(=O)(=O)O)c12" and print it.
Reply text: 74.6 µM (inactive)

Inquiry: Annotate the compound "CN(Cc1cnc2nc(N)nc(N)c2n1)c1ccc(C(=O)N[C@@H](CCS(=O)(=O)O)C(=O)O)cc1" with its measured GI50.
Reply text: 0.404 µM (active)

Inquiry: State, in one line, measured GI50 of Nc1ncc(/C=N/O)c(NCC2(CO)CC(CCc3ccccc3)C2)n1 (configuration not stated)
Reply text: > 10 µM (inactive)

Inquiry: Return GI50 (reported value) for this compound: "COc1cc(CO)c(CC(=O)NCCCc2ccccc2)cc1OC"
Reply text: > 100 µM (inactive)

Inquiry: Tell me its GI50 given CCOC(=O)C(NC(=O)N(C1=NCC(C)S1)C1CCCCC1)(OC)C(F)(F)F (configuration not stated) as the entry.
Reply text: 32.3 µM (inactive)

###

- System: OVCAR-8
- assay: NCI tumour cell line growth inhibition, 48 h
The source made the active and inactive calls. Cut-off read from the data, not from the text of the source: active = GI50 up to about 1.1 µM and inactive = higher.
Valid outcomes are listed here; reply with one: 1 (yes) (active), 0 (no) (inactive)

Inquiry: Called result for "c1ccc2c(c1)nnn2CNc1ccc(N2CCOCC2)cc1"
Reply text: 0 (no)

Inquiry: Tell me the recorded outcome of this test for COc1cc([C@@H]2c3cc4c(cc3[C@@H](OC(=O)c3ccccc3)C3COC(=O)[C@@H]32)OCO4)cc(OC)c1O (stereo not given in full) .
Reply text: 1 (yes)

Inquiry: For this compound, state the assay outcome: "Cc1ccc([N+](=O)[O-])c2c(NCCC[N+](C)(C)[O-])ccnc12"
Reply text: 0 (no)

Inquiry: Outcome? C[C@H](CCC1SC1(C)C)C1CCC2(C)C3=C(CC[C@]12C)[C@@]1(C)CC[C@H](O)C(C)(C)C1CC3 (stereo not given in full)
Reply text: 0 (no)

Inquiry: Test call, this compound: "COc1ccc(OC)c(/C=C/NC=O)c1"
Reply text: 0 (no)

Inquiry: Would you mind telling me which call this test gave O=C1c2ccccc2C(=O)c2c1ccc(O)c2O [ATHRAQUINONES A] ?
Reply text: 0 (no)

Inquiry: How did this test come out for CCOC(=O)C(NC(=O)N(C1=NCC(C)S1)C1CCCCC1)(OC)C(F)(F)F (stereo not given) ?
Reply text: 0 (no)

Inquiry: Tell me the recorded outcome of this test for "CCOC(=O)c1csc(NC(=O)CCN2CCCCC2)n1" .
Reply text: 0 (no)

Inquiry: Call for entry N#C/C(=C\c1ccc(O)c(O)c1)C(=O)NC1CCC(CC2CCC(NC(=O)/C(C#N)=C/c3ccc(O)c(O)c3)CC2)CC1 (stereo not given) :
Reply text: 1 (yes)

Inquiry: Tell me the assay call for "COc1ccc(C(=O)/C=C/c2cccnc2)cc1OC" please.
Reply text: 0 (no)

Inquiry: For this compound, state the assay outcome: "C=Cc1cnc([N+](=O)[O-])n1C"
Reply text: 0 (no)

Inquiry: Returns: the outcome recorded for COC(=O)C1(C(=O)OC)N=C(C)OC1c1ccccc1O (stereo not given) in this assay.
Reply text: 0 (no)

Inquiry: For this compound, state the assay outcome: "CSc1nc2nc(C)c(C)nc2c(=O)[nH]1"
Reply text: 0 (no)

Inquiry: Record lookup: outcome of this test for C/C=C(\C)C(=O)OC1C(C)=C2C(C1OC(=O)CCCC)C(C)(OC(C)=O)CC(OC(=O)CCCC)C1(O)C2OC(=O)C1(C)O (stereo not given) ?
Reply text: 0 (no)

Inquiry: Please let me know the test result on file for "CN(C)CCCNc1c2ccccc2[n+]([O-])c2ccccc12" .
Reply text: 0 (no)

Inquiry: # fetch the recorded call for "CCN(CC)CCNc1n[n+]([O-])c2cc([N+](=O)[O-])ccc2[n+]1[O-]" here
Reply text: 1 (yes)

Inquiry: I would be grateful if you could indicate the recorded call for "COC(=O)c1cc2c(s1)C(=O)c1ccccc1-2" .
Reply text: 0 (no)

Inquiry: I'd appreciate the recorded outcome for "CNc1nc(N)cc(O)n1" from this test.
Reply text: 0 (no)

Inquiry: // outcome(item) with item = "CN1CN(c2ccccc2)C2(CCN(CCCC(=O)c3cccs3)CC2)C1=O"
Reply text: 0 (no)

Inquiry: What classification did "O=CNCNCCO" end up with in this test?
Reply text: 0 (no)

Inquiry: Test call for this compound, please: "COC(=O)[C@@H](NS(=O)(=O)CC12CCC(CC1)C2(C)C)C(C)(C)C"
Reply text: 0 (no)

Inquiry: Per the assay record, what outcome was assigned to "COc1ccc(/N=N/C(=N/NC(=O)c2cc(Cl)ccc2C(=O)c2ccccc2)c2ccc(N(CCC#N)CCC#N)cc2C)cc1" ?
Reply text: 0 (no)

Inquiry: For this compound, state the assay outcome: "CN(C)Cc1cc(/N=N/c2ccc(Cl)cc2)ccc1OC(=O)c1ccccc1"
Reply text: 0 (no)

Inquiry: Any idea what this test logged for CCOC(=O)C1S/C(=N\c2ccccc2)N=C1C (stereo not given) ?
Reply text: 0 (no)

Inquiry: Short answer needed: outcome of this test for "N#C/N=[N+](\[O-])c1ccc(C(=O)O)cc1" ?
Reply text: 0 (no)
